# experiment: in vitro
# Type: cell-based
# recorded conditions: Chinese hamster
Quick reference: IC50 at 24 h of the listed items.

The cases that follow already have their IC50 at 24 h on record.
compound	IC50 at 24 h
COC(=O)CONCc1ccc(O)c2c1C[C@H]1C[C@H]3[C@H](N(C)C)C(O)=C(C(N)=O)C(=O)[C@@]3(O)C(O)=C1C2=O [AX]	< 35 µg/mL
CC(=NOC(C)(C)C)c1cc(N)c(O)c2c1C[C@H]1C[C@H]3[C@@H](N(C)C)C(O)=C(C(N)=O)C(=O)[C@@]3(O)C(O)=C1C2=O [R]	< 35 µg/mL
CCON=C(C)c1cc(N)c(O)c2c1C[C@H]1C[C@H]3[C@H](N(C)C)C(O)=C(C(N)=O)C(=O)[C@@]3(O)C(O)=C1C2=O [M]	> 75 µg/mL
CON(C)Cc1ccc2c(c1O)C(=O)C1=C(O)[C@]3(O)C(=O)C(C(N)=O)=C(O)[C@@H](N(C)C)[C@@H]3C[C@@H]1C2 [Compound AP]	35 to 75 µg/mL
CN(C)[C@H]1C(O)=C(C(N)=O)C(=O)[C@@]2(O)C(O)=C3C(=O)c4c(O)ccc(CNOCC(F)F)c4C[C@H]3C[C@@H]12 [AS]	> 75 µg/mL

Let's switch to this compound now.
[in] Need IC50 at 24 h of CCON=C(CCN(C)C)c1ccc(O)c2c1C[C@H]1C[C@H]3[C@@H](N(C)C)C(O)=C(C(N)=O)C(=O)[C@@]3(O)C(O)=C1C2=O [Compound I] , thanks.
[out] > 75 µg/mL
